# tgt: Aurora kinase A (Homo sapiens)
# Sequence (O14965 whole entry): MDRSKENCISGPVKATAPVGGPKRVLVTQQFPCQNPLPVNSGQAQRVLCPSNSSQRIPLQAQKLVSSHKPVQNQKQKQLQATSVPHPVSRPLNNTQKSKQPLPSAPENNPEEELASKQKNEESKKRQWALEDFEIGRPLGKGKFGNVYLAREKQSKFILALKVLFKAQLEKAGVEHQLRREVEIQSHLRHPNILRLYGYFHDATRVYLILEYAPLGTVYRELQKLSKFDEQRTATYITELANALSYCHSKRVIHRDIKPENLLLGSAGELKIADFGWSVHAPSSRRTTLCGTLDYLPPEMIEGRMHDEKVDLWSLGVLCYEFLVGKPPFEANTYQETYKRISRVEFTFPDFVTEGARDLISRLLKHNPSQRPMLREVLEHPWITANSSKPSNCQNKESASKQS
pIC50: −log10 of the molar value.
measuredParameter: pIC50

Form field: reported pIC50 of O=C(Nc1ccc(Oc2ncnc3[nH]ncc23)cc1)Nc1ccc(Cl)c(C(F)(F)F)c1
< 5.00

----------
# tgt: Fibroblast growth factor receptor 2 (Homo sapiens, UniProt P21802)
# Sequence (P21802 whole entry): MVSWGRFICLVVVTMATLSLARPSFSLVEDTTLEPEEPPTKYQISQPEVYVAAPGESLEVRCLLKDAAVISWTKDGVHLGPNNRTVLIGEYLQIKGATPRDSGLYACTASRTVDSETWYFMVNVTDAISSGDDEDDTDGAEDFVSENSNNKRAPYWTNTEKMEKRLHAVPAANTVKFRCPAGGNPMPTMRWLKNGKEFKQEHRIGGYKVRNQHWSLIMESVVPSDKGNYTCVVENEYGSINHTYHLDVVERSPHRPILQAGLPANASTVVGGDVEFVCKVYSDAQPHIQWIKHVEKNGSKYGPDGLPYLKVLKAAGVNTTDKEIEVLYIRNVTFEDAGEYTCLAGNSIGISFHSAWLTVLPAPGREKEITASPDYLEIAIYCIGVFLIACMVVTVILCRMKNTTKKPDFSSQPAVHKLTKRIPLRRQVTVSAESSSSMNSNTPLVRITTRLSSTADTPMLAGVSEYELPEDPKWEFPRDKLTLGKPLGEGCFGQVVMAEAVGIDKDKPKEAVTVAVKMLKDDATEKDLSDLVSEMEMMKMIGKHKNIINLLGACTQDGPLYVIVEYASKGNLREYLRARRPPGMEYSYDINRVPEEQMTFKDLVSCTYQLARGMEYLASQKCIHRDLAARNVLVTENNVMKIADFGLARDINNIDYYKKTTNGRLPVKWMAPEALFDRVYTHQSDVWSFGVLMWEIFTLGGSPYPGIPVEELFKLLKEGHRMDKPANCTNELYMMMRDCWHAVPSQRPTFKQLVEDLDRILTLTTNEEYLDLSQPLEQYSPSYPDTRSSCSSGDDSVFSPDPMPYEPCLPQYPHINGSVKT
measuredParameter: IC50
Note: a bare number is incomplete; add the unit.

Form field: reported IC50 of O=C(Nc1ccc(Oc2ncnc3[nH]ncc23)cc1)Nc1ccc(Cl)c(C(F)(F)F)c1
1.81 µM

----------
# System: DU-145
# protocol: Cytotoxicity against human DU145 cells assessed as growth inhibition after 72 hrs by MTT assay
# conditionSet: DU-145, 72 h
measuredParameter: IC50

Form field: reported IC50 of O=C(Nc1ccc(Oc2ncnc3[nH]ncc23)cc1)Nc1ccc(Cl)c(C(F)(F)F)c1
> 10 µM

----------
# protocol: Cytotoxicity against human SK cells assessed as growth inhibition after 72 hrs by MTT assay
pIC50: −log10 of the molar value.
measuredParameter: pIC50

Form field: reported pIC50 of O=C(Nc1ccc(Oc2ncnc3[nH]ncc23)cc1)Nc1ccc(Cl)c(C(F)(F)F)c1
< 5.00

----------
# tgt: Serine/threonine-protein kinase PAK 2 (Homo sapiens, UniProt Q13177)
# Sequence (Q13177 whole entry): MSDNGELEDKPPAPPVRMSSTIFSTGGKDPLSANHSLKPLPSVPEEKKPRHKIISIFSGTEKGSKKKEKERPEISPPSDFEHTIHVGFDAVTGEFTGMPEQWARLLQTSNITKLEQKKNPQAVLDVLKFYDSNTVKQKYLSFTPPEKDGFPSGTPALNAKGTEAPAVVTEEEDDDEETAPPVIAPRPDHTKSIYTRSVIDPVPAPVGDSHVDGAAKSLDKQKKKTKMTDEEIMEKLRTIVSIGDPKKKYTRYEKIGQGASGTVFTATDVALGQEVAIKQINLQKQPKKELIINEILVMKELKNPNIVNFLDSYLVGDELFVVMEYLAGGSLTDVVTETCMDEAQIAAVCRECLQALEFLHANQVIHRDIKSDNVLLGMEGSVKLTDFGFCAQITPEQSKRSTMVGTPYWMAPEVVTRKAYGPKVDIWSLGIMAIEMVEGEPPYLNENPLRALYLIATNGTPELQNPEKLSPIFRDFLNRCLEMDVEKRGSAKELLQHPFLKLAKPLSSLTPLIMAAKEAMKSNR
measuredParameter: IC50

Form field: reported IC50 of O=C(Nc1ccc(Oc2ncnc3[nH]ncc23)cc1)Nc1ccc(Cl)c(C(F)(F)F)c1
> 10 µM

----------
# protocol: Apparent half life in Sprague-Dawley rat at 10 mg/kg/day, po
# Assay type: ADME, organism-based
# Parameters: route oral
# conditionSet: in vivo, read-out: t1/2(app) (converted)
measuredParameter: half-life (h)
Numbers only, in h.

Form field: reported half-life of O=C(Nc1ccc(Oc2ncnc3[nH]ncc23)cc1)Nc1ccc(Cl)c(C(F)(F)F)c1
12.6

----------
# tgt: Receptor-type tyrosine-protein kinase FLT3 (Homo sapiens, UniProt P36888)
# Sequence (P36888 whole entry): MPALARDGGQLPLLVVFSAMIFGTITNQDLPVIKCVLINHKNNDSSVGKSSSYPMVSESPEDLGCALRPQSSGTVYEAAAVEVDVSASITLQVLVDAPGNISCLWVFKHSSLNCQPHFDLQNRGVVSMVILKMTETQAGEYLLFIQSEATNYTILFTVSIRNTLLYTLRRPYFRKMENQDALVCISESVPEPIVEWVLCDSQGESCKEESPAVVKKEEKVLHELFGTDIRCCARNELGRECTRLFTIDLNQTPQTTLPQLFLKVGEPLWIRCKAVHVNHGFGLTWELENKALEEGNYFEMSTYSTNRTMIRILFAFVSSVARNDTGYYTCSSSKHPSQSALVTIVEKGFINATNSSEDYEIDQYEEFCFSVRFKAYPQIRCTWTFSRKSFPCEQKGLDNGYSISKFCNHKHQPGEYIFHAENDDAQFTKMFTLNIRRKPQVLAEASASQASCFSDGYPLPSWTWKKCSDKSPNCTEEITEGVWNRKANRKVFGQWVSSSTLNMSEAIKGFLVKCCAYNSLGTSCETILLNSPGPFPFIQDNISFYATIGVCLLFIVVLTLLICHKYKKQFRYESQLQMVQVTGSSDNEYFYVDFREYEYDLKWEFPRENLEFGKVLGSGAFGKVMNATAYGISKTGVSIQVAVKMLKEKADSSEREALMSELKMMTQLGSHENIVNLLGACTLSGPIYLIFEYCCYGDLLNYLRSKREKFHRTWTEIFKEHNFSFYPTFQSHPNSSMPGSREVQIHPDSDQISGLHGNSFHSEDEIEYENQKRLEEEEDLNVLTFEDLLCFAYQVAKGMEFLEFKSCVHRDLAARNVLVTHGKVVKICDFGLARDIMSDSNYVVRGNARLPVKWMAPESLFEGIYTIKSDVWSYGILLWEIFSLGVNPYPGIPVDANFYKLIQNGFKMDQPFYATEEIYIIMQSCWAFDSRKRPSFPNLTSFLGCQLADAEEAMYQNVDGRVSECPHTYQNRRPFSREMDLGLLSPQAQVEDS
# protocol: Inhibition of FLT3 phosphorylation in human MV4-11 cells after 20 hrs by Western blotting analysis
# Format: cell-based
measuredParameter: IC50
Note: a bare number is incomplete; add the unit.

Form field: reported IC50 of O=C(Nc1ccc(Oc2ncnc3[nH]ncc23)cc1)Nc1ccc(Cl)c(C(F)(F)F)c1
3 nM
